test system: EKVX NSCLC; assay: NCI tumour cell line growth inhibition, 48 h; in the data active means GI50 below about 0.43 µM; inactive means the rest
Classes used: class 1 = active, class 0 = inactive

| molecule | assigned.class |
| --- | --- |
| O=C(CNc1ccc(Cl)cc1)Nc1ccc(-c2nc3ccccc3s2)cc1 | class 0 |
| CC(C)=CC/C=C(/C)[C@H]1CC[C@]2(C)[C@@H]1CC[C@@H]1[C@@]3(C)CCCNC(C)(C)[C@@H]3CC[C@]12C | class 0 |
| O=C(Nc1nc2ccc(C(F)(F)F)cc2s1)c1cc(Cl)ccc1O | class 1 |
| COc1ccc(/C=C(/C(=O)N2CCN(c3ccccc3)CC2)c2cc(OC)c(OC)c(OC)c2)cc1O | class 0 |
| COc1cc(N(CCC#N)CCC#N)ccc1/C(N=Nc1ccc([N+](=O)[O-])cc1)=N/NC(=O)c1cc(Br)ccc1O | class 0 |
| CC(C)CCN1c2nc(Nc3cc(F)c(O)c(F)c3)ncc2N(C)C(=O)C1C (stereo unspecified) | class 0 |

* * *

system: MDA-MB-435; assay: NCI tumour cell line growth inhibition, 48 h
Attribute: TGI

| molecule | operator.symbol | TGI, µM |
| --- | --- | --- |
| CCCn1c2ccccc2c2ccc3c(c21)C(=O)C=CC3=O | = | 5.29 |
| O=C1NC(NNc2ccccc2)=N/C1=C\c1ccccc1O | > | 100 |
| CC(=O)N(C)c1ccc(Nc2cc(C)[nH]c3ccc4ncnc4c23)cc1 | = | 23.3 |
| C=C(CNCc1ccccc1)c1ccc(C(=O)Nc2ccccc2N)cc1 | = | 27.7 |
| O=C(NC(Cc1c[nH]c2ccccc12)C(=O)Nc1ccc(Br)cc1)OCc1ccccc1 (stereo unspecified) | = | 22.1 |
| O=C1c2cccc(NCCCNCCO)c2C(=O)c2cccc(NCCCNCCO)c21 | = | 3.06 |

* * *

tested on: SK-MEL-5 melanoma; test: NCI tumour cell line growth inhibition, 48 h
recorded.metric: TGI (µM)

| molecule | operator.symbol | experimental.result |
| --- | --- | --- |
| COC(=O)C1=C(O)c2cc(OC)c(OC)cc2C(c2ccc(OC)c(OC)c2)C1 (stereo unspecified) | > | 100 |
| Cn1cc(CO)c2c1C(=O)C=C(N1CC1)C2=O | < | 0.01 |
| CC(C)N(C(=O)C12C3C4C5(C#N)C3C1(C#N)C5C42I)C(C)C (stereo unspecified) | > | 100 |
| O=C(Nc1nc2ccc(C(F)(F)F)cc2s1)c1cc(Cl)ccc1O | = | 0.684 |
| OC[C@H]1C[C@](O)(c2ccc(Cl)cc2)[C@@H](c2ccc(Cl)cc2)O1 | = | 29.3 |
| Cc1cc(C)nc(NC(=O)c2ccc(Br)s2)c1 | = | 17.6 |

* * *

tested on: SW-620 colon; assay: NCI tumour cell line growth inhibition, 48 h
Attribute: GI50

| compound | GI50 |
| --- | --- |
| CCCCCCCCCCCCOC1C(C(COC2OC(C3COC(C)(C)O3)C3OC(C)(C)OC23)NC(=O)Nc2ccc(C(=O)O)cc2)OC2OC(C)(C)OC21 (stereo not given) | 3.26 µM |
| CCCCCCNC(=O)c1cc(NCc2cc(O)ccc2O)ccc1O | 8.75 µM |
| CN(C)CCCNC(=O)c1cc2[nH]c3c(cnc4ccc([N+](=O)[O-])cc43)c(=O)c2n1C | 17.4 µM |
| C=C1CC[C@@H]2[C@](C)(COC(C)=O)[C@H](OC(C)=O)CC[C@@]2(C)[C@@H]1CC(Sc1ccccc1)C1=CCOC1=O (stereo not given in full) | 0.716 µM |
| O=c1c2sc(=S)n(-c3ccc(F)cc3)c2ncn1Cc1ccc(F)cc1F | > 100 µM |

* * *

test system: OVCAR-8 ovarian; experiment: NCI tumour cell line growth inhibition, 48 h; in the data active = GI50 below about 0.43 µM; inactive = the rest
Classes used: YES = active, NO = inactive

| molecule | assigned.class |
| --- | --- |
| O=C(OC(CNc1cc(=O)n(Cc2ccccc2)c(=O)n1Cc1ccccc1)CN1CCCC1)c1ccccc1 (stereo unspecified) | NO |
| Cn1c2ccccc2c2c3c(c4c5cc(Br)ccc5n(C)c4c21)C(=O)N(O)C3=O | YES |
| Cn1nc(N)c2cc([C@@H]3Nc4ccc5[nH]ncc5c4[C@H]4C5CCC(C5)[C@@H]34)ccc21 (stereo partly specified) | NO |
| Cc1cc(I)cc(CN(C)CCCN2CCCCCCC2)c1O | NO |
| COc1cc2nc(-c3ccc(Cl)cc3)cc(OCCCN3CCCCC3)c2cc1OC | NO |
| CN(C)CCCNC(=O)c1cc2[nH]c3c(cnc4ccc([N+](=O)[O-])cc43)c(=O)c2n1C | NO |
| COc1ccc(/C=C(/C(=O)N2CCN(c3ccccc3)CC2)c2cc(OC)c(OC)c(OC)c2)cc1O | YES |
| O=C(Nc1nc2ccc(C(F)(F)F)cc2s1)c1cc(Cl)ccc1O | NO |
| N#CC(=C1C=CC(=NO)C=C1)c1ccccc1 | NO |
| CCCCCCNC(=O)c1cc(NCc2cc(O)ccc2O)ccc1O | NO |
| CC(C)=CCNc1ncnc2c1ncn2C1OC(CO)C(O)C1O (stereo unspecified) | NO |
| COc1cc(C2CC(c3cccc(Br)c3)=NN2C(C)=O)cc(OC)c1OC (stereo unspecified) | NO |
| CN1CCN(CCOc2ccc(-c3cnc4c(-c5ccccc5F)cnn4c3)cc2)CC1 | NO |
| COc1ccc(-n2cc(-c3cc(OC)c(OC)c(OC)c3)c(C(=O)C(F)(F)F)c2C)cc1 | NO |
| CCCCCCCCCCCCOC1C(C(COC2OC(C3COC(C)(C)O3)C3OC(C)(C)OC23)NC(=O)Nc2ccc(C(=O)O)cc2)OC2OC(C)(C)OC21 (stereo unspecified) | NO |
| CC(C)c1ccc2c(c1)CC[C@@H]1[C@@](C)(C(=O)O)CCC[C@]21C | NO |

* * *

test system: OVCAR-3 ovarian; assay: NCI tumour cell line growth inhibition, 48 h

| molecule | measurement.unit | operator.symbol | TGI |
| --- | --- | --- | --- |
| CC(O)CCC(=O)c1ccoc1 (centres undefined) | µM | = | 9960 |
| CN(C(=O)C1=CCC2(CC1)OCCO2)c1ccccc1OS(=O)(=O)C(F)(F)F | µM | > | 100 |
| C=CCCCCC/C=C\[C@H](O)C#CC#C/C=C/CO | µM | = | 80.3 |
| [N-]=[N+]=NC12CC3C4CC5CC3C(C1)C(C5)C4C2 | µM | > | 100 |
| CC(C)(C)OC(=O)N1CCc2[nH][nH]c(=O)c2C1 | µM | > | 100 |
| COc1cc(OC)c(-c2ccc(OCc3ccccc3)c3c(OC)cc(C)cc23)c2c1C(C)=N[C@H](C)C2 | µM | = | 4.08 |
| CCOC(=O)c1c(-c2ccc(OC)cc2)c(C#N)c(=S)n(C2OC(COC(C)=O)C(OC(C)=O)C(OC(C)=O)C2OC(C)=O)c1-c1ccccc1 (centres undefined) | µM | > | 100 |
| CC(C)(C)CC(C)(C)c1cc2c(O)c(c1)Cc1cc(C(C)(C)CC(C)(C)C)cc(c1O)Cc1cc(C(C)(C)CC(C)(C)C)cc(c1O)Cc1cc(C(C)(C)CC(C)(C)C)cc(c1O)C2 | µM | > | 100 |
| CCCCCCCCCC1(N=[N+]=[N-])C(=O)c2ccccc2N(C)C1=O (centres undefined) | µM | = | 56.4 |

* * *

system: M19-MEL melanoma; assay: NCI tumour cell line growth inhibition, 48 h

| compound | TGI |
| --- | --- |
| S=C(Nc1ccccc1)N(/N=C/C=C/c1ccccc1)c1nnc(-c2ccccc2)c(-c2ccccc2)n1 | > 100 µM |
| CN(C)/C=N/c1nc2c(ncn2C2OC(CO)C(O)C2O)c(=O)[nH]1 (configuration not stated) | > 100 µM |
| CC(=O)c1cccc(NC(=O)C(=O)NNc2n[nH]c(=S)n2N)c1 | 2.36 µM |
| CC(C)N(C(=O)C12C3C4C5(C#N)C3C1(C#N)C5C42I)C(C)C (configuration not stated) | > 100 µM |
| CC(C)c1ccccc1NC(=O)CCc1n[nH]c(=S)o1 | > 100 µM |
| CC(C)(C)[Si](OC1CC(n2cnc3c(N)ncnc32)OC1CO)(c1ccccc1)c1ccccc1 (configuration not stated) | 42.9 µM |
| CC(C)(C)CC(C)(C)c1cc2c(O)c(c1)Cc1cc(C(C)(C)CC(C)(C)C)cc(c1O)Cc1cc(C(C)(C)CC(C)(C)C)cc(c1O)Cc1cc(C(C)(C)CC(C)(C)C)cc(c1O)C2 | > 100 µM |

* * *

system: SF-268 CNS; assay: NCI tumour cell line growth inhibition, 48 h

| molecule | TGI |
| --- | --- |
| O=C(O)c1ccc(N=C(C(=Nc2ccc(C(=O)O)cc2)c2ccccc2)c2ccccc2)cc1 | > 100 µM |
| CN(C)/C=N/c1nc2c(ncn2C2OC(CO)C(O)C2O)c(=O)[nH]1 (stereo not given) | > 100 µM |
| COc1ccc(N2C(=O)CC(C3CC(C(C)(C)C)CCC3=O)C2=O)cc1 (stereo not given) | > 100 µM |
| Cc1ccc(NC(=O)C(=O)C(C(=O)c2ccc3ccccc3c2)C2OC(=O)c3ccccc32)cc1C (stereo not given) | 52.8 µM |
| CC(=O)c1cccc(NC(=O)C(=O)NNc2n[nH]c(=S)n2N)c1 | 27.7 µM |
| CC(=O)Nc1ccc(C(=O)NN2C(=O)CSC2c2ccc([N+](=O)[O-])cc2)cc1 (stereo not given) | > 100 µM |
| COC(=O)c1ccc(C(=O)NC(Cc2ccc(Oc3cc(CC(NC(=O)c4ccccc4C(=O)OC)C(=O)OC)ccc3OC)cc2)C(=O)OC)cc1 (stereo not given) | > 100 µM |
| Cc1ccc(S(=O)(=O)N(CC(=O)O)c2ccccc2)cc1 | > 100 µM |
| CNC(C#N)c1ccc(OC)cc1 (stereo not given) | > 100 µM |
| CCCCN(CCCC)CC(O)c1cc(-c2ccc(C(F)(F)F)cc2)nc(-c2ccc(C(F)(F)F)cc2)c1 (stereo not given) | > 100 µM |

Measured values drawn from PubChem BioAssay (NCI) for this set.
